Provenance of the data: patent US20190315842A1

Biological target: T1, sclerosis autoantigen (Scl-70) (UniProt P11387 2-765, limits assumed)
T1 sequence (looked up): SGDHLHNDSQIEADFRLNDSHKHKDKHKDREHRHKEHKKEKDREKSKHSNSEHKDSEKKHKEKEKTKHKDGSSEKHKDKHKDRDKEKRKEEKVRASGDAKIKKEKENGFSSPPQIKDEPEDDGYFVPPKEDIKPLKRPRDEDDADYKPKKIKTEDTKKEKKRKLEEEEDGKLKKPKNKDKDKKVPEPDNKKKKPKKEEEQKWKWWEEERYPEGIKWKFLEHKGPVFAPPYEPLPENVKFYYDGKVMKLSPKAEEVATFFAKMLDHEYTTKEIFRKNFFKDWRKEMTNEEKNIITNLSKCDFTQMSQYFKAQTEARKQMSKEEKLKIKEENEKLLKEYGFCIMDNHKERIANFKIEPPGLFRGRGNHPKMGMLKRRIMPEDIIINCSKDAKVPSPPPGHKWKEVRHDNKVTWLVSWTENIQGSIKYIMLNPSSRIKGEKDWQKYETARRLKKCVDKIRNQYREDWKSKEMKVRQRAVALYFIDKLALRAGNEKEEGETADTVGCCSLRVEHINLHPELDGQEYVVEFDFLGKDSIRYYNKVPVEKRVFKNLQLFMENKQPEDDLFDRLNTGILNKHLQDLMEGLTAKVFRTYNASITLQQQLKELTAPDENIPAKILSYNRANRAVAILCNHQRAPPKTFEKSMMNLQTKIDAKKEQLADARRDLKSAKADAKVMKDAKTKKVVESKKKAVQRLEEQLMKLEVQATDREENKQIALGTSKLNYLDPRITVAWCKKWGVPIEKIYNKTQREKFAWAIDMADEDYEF
Assay: AtheNA Multi-Lyte ANA, Ab at 50 ug/ml;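 also: monoclonal antibodies probed against a nuclear autoantigen panel (SSA, SSB, Sm, RNP, Scl-70, Jo-1, dsDNA, CentB, histones), with anti-HIV 4E10 and palivizumab as control antibodies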
quantityMeasured: AtheNA signal
Answers are plain numbers.

Report AtheNA signal for each item below.
1. Ab7962/293i (antibody, V domains shown, Recombinant human antibody with IgG1 heavy chain backbone and kappa light chain constant (IgM in the donor B cell); they begin at LVESGGG and MTQSL; also called clone 27; pH007962/pK005996) VH: LVESGGGLVQPGGSLRLSCAASGFTFSSYEMNWVRQAPGKGLEWVSYISSSGSTIYYADSVKGRFTISRDNAKNSLYLQMNSLRAEDTAVYYCARVEQLAPSPYMDVWGKGTTVTVSS VL: MTQSLDSLTVSLGERATINCKSSQSLLYTSNNKNYLAWYQQKSGQPPKLLIYWASIRDSGVPDRFSGSGSATDFTLTINNLQAEDVAVYFCQQYYKTPLTFGGGTKVEVR
2. Ab7961/293i (antibody, IgG1, V domains shown, Recombinant human antibody with IgG1 heavy chain backbone and kappa light chain constant; they begin at LVESGGG and MTQSP; also called mAb 7961; clone 24) VH: LVESGGGVVQPGKSLRLSCVASGFTFSSYGMHWVRQAPGKGLEWVAVMSFDGKTKYYADSVKGRFTISRDNPKNTLYLQMNSLRSEDTAVYYCAKGGAAAAVFDSWGQGILLTVSS VL: MTQSPNSLAVSLGGRATINCKTSQSILYRSNNKNYLAWYQHKSGQPPKLLIYWASTRESGVPDRFSGSGSRTDFTLTISGLQAEDVAVYYCQQYYNPPWTFGQGTKVEIK
3. Ab7960/293i (antibody, IgG1, V domains shown, Recombinant human antibody with IgG1 heavy chain backbone and kappa light chain constant; they begin at LVESGGG and MTQSP; also called mAb 7960; mAb7960) VH: LVESGGGVVQPGKSLRLSCVASGFSFSTYGMHWVRQAPGKGLEWVAVMSFDGKTKYYADSVKGRFTISRDNPKNTLYLQMNSLRSEDTAVYYCAKGGAAAAVFDSWGPGILLTVSS VL: MTQSPNSLAVSLGGRATINCKASQSILYRSNNKNYLAWYQHKAGQPPKLLIYWASTRESGVPERFSGSGSRTDFTLTINGLQAEDVAVYYCQQYYNPPWTFGQGTKVEIK
4. Ab7968 (antibody, IgG1, V domains shown, Recombinant human antibody with IgG1 heavy chain backbone and kappa light chain constant; they begin at LVESGGG and MTQSP; also called mAb 7968; mAb7968) VH: LVESGGGVVQPGRSLRLSCAASGFTFSRYGMHWVRQAPGKGLEWVAVMSYDGSTKYYADSVKGRFAISRDNPKNTLFLQMNSLRPDDTAVYYCAKGGAAAAVMDVWGKGTTVTVSS VL: MTQSPDSLTVSLGERATISCKSSQRLLYSSNNKNYLAWYQQKPGQPPKLLMYWASTRESGVPDRFSGSGSGTDFSLTISSLQAEDVAVYYCQQYYNPPWTFGQGTKVEVK

2
3
3
4
